Study Target: UniProt P32238
Sequence (P32238 whole entry): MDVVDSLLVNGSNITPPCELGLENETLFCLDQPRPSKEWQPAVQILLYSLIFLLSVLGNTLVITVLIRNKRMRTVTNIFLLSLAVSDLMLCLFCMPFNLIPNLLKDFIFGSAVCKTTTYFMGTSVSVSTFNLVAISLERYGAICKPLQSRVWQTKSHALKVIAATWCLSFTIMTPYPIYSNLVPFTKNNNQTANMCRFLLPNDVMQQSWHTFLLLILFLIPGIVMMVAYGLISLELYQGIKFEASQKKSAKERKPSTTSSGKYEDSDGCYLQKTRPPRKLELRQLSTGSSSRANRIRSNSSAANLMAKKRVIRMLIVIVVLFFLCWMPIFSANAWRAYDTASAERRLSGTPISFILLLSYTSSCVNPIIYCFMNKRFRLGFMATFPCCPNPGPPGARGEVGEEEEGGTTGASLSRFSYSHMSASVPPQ
Assay Text: Displacement of [125I]CCK-8s from human recombinant CCK1 receptor after 60 mins by scintillation counting analysis
Readout Name: IC50 (nM)
Respond numerically; units are nM and should not be typed.

QUERY: Return reported IC50. Input molecule: "CC(C)(C)NS(=O)(=O)c1ccc(-c2sc(C(=O)N[C@H]3C[C@H](C(=O)O)C3)nc2CC2CCCCC2)c2ccccc12"
RESULT: 0.12

###

Study Target: D(1A) dopamine receptor (Homo sapiens)
Sequence (P21728 whole entry): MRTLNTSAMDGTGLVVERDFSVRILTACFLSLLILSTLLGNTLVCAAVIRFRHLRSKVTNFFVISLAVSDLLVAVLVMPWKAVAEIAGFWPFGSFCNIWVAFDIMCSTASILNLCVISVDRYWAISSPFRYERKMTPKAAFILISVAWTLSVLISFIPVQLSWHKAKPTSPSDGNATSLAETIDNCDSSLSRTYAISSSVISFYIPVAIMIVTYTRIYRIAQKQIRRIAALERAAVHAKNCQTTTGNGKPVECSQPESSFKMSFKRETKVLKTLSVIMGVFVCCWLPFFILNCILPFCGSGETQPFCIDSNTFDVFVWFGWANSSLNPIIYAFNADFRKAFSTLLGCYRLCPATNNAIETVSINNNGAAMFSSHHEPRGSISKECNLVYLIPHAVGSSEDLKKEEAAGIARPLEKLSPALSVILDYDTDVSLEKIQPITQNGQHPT
Assay Text: Displacement of [3H]-SCH 23390 from human recombinant dopamine D1 receptor after 60 mins by scintillation counting analysis
Readout Name: pIC50
Please express pIC50 as -log10 of the molar concentration.

QUERY: Return reported pIC50. Input molecule: "CC(C)(C)NS(=O)(=O)c1ccc(-c2sc(C(=O)N[C@H]3C[C@H](C(=O)O)C3)nc2CC2CCCCC2)c2ccccc12"
RESULT: 9.68
